B1: TPR t1 (parent)
chain: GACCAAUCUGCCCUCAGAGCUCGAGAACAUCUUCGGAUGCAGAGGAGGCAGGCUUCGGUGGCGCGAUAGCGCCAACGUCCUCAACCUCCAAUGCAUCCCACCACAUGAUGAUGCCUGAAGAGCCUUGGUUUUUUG

Variants of: B1
Experiment: polymerase ribozyme fitness, log enrichment relative to wild type (log ratio); higher = more active; in vitro selection for triplet polymerase activity
Provide the reported polymerase ribozyme fitness (log ratio) of each item.
Give bare numbers.

Variant Identifier | Reported Property | Recorded Measurement
G47U C85U | polymerase ribozyme fitness (log ratio) | -1.98
C11G G122A | polymerase ribozyme fitness (log ratio) | 0.352
C31U C94A C114U | polymerase ribozyme fitness (log ratio) | -5.92
C8G C11G C56A C104A | polymerase ribozyme fitness (log ratio) | -1.39
C11G G35A | polymerase ribozyme fitness (log ratio) | -2.51

Need polymerase ribozyme fitness (log ratio) for each of these variants.
1. C89A G128C
2. C15A G39U C40U C64U G93C

Given back:
[-4.25, -4.09]

Could I get polymerase ribozyme fitness (log ratio) for every one of these entries?
1. A46U G71U A118G
2. A43U G44A C76G A111C
3. C8A C28G C53A
4. C124U U126A
5. A27C G47U C73U G77U C86G C123A U126A
6. A50C G107A
7. U14G A111C G127A

Given back:
-0.0825
-2.36
-2.01
1.37
-4.61
-6.09
-3.8
